Exercise: state measured pEC50 for each of the molecules provided.
target: UniProt Q14416; experiment: In vitro activity test for mGluR2 (HDB Fluo-8 calcium fluorescence, HEK/mGluR2 cell line)
Sequence (Q14416 19-872): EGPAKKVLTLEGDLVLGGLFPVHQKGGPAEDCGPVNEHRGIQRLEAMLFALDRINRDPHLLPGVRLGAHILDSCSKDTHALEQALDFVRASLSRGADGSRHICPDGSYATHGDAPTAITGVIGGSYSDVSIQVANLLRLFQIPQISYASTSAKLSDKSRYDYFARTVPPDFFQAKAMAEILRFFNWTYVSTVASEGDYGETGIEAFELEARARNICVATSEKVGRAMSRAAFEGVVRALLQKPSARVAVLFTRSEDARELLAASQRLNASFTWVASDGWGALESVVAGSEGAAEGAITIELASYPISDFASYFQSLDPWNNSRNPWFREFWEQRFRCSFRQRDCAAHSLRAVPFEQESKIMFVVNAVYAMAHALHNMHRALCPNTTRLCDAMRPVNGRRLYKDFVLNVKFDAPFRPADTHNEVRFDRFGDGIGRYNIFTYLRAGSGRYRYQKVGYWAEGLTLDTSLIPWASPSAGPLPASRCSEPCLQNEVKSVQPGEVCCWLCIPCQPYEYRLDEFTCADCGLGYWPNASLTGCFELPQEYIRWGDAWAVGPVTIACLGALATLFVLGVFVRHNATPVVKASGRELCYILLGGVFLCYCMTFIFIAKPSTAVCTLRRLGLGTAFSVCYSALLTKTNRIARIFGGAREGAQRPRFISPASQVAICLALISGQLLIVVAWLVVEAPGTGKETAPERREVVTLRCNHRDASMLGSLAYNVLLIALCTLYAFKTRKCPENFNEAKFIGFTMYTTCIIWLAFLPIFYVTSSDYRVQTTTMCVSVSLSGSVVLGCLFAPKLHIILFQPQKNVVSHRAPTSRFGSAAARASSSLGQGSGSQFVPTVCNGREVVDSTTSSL
Just so you know, pEC50 here is -log10 of the concentration in molar units; reply with that number alone.

Inquiry: For Fc1cccc(-c2ccn3c(CC4CC4(F)F)nnc3c2)c1 (stereo not shown) [Compound 11] , what is its reported pEC50?
Reply text: 6.15

Inquiry: For FC1(F)CC1Cc1nnc2cc(-c3ccc4c(c3)CCO4)ccn12 (stereo not shown) [Compound 31] , what is its reported pEC50?
Reply text: 6.43

Inquiry: For FC1(F)CC1Cc1nnc2cc(-c3cccc4cccnc34)ccn12 (stereo not shown) [Compound 34] , what is its reported pEC50?
Reply text: 6.21

Inquiry: For CC(C)(O)c1ccc(-c2ccn3c(CC4CC4(F)F)nnc3c2)cc1 (stereo not shown) [Compound 21] , what is its reported pEC50?
Reply text: 6.65

Inquiry: For Cc1cc(F)ccc1-c1ccn2c(CC3CC3(F)F)nnc2c1Cl (stereo not shown) [Compound 41] , what is its reported pEC50?
Reply text: 6.07

Inquiry: For FC1(F)CC1Cc1nnc2cc(-c3ccc4c(c3)OCO4)ccn12 (stereo not shown) [Compound 35] , what is its reported pEC50?
Reply text: 6.97

Inquiry: For Fc1ccc(-c2ccn3c(CC4CC4(F)F)nnc3c2)cc1 (stereo not shown) [Compound 13] , what is its reported pEC50?
Reply text: 6.42

Inquiry: For FC1(F)CC1Cc1nnc2c(Cl)c(-c3ccc4c(c3)CCO4)ccn12 (stereo not shown) [Compound 47] , what is its reported pEC50?
Reply text: 6.67

Inquiry: For COc1ccccc1Oc1ccc(N(Cc2cccnc2)S(=O)(=O)CC(F)(F)F)cc1 [LY487379, reference compound] , what is its reported pEC50?
Reply text: 6.64

Inquiry: For FC1(F)CC1Cc1nnc2c(Cl)c(-c3ccc4c(c3)OCO4)ccn12 (stereo not shown) [Compound 50] , what is its reported pEC50?
Reply text: 7.21

Inquiry: For Cc1cccc(-c2ccn3c(CC4CC4(F)F)nnc3c2Cl)c1 (stereo not shown) [Compound 36] , what is its reported pEC50?
Reply text: 6.89

Inquiry: For Fc1cccc(-c2ccn3c(CC4CC4(F)F)nnc3c2Cl)c1 (stereo not shown) [Compound 37] , what is its reported pEC50?
Reply text: 6.72

Inquiry: For Cc1cc(F)ccc1-c1ccn2c(CC3CC3(F)F)nnc2c1 (stereo not shown) [Compound 26] , what is its reported pEC50?
Reply text: 6.11

Inquiry: For COc1ccc(-c2ccn3c(CC4CC4(F)F)nnc3c2Cl)cc1F (stereo not shown) [Compound 44] , what is its reported pEC50?
Reply text: 6.93

Inquiry: For COC(=O)c1ccc(-c2ccn3c(CC4CC4(F)F)nnc3c2)c(F)c1 (stereo not shown) [Compound 29] , what is its reported pEC50?
Reply text: 6.27

Inquiry: For FC1(F)CC1Cc1nnc2cc(-c3cccc4c3OCC4)ccn12 (stereo not shown) [Compound 32] , what is its reported pEC50?
Reply text: 6.08
